# test: NCI Yeast Anticancer Drug Screen. Data for the rad50 strain (AID 155)
# condition context: S. cerevisiae rad50 strain growth inhibition; at 50.0 µM
# Protocol: Growth inhibition of yeast strains with defined genetic alterations is measured as a screen for potential anti-cancer activity. Selected strains with alterations in DNA damage repair or cell cycle control were exposed to compounds and growth inhibition was measured relative to vehicle treated controls. The strain used in this assay is rad50
About 79,000 compounds went through this panel and 15% of them were active in at least one assay; those are over-represented in the sample as a whole. Active and inactive are the calls of the source. Rule as the data show it: active = growth inhibition above about 70%; inactive = the rest.
Can you answer with just one of these options? yes = active, no = inactive

State the result this test recorded for Cc1ccc(N=P(c2ccccc2)(c2ccccc2)c2ccccc2)cc1.[I][Hg][I] .
yes

Repeat for the following molecule: [O]=[Sb][c]1ccc(Cl)cc1
yes

Repeat for the following molecule: [C-]#[O+].[C-]#[O+].[C-]#[O+].[Cl-].[Ru+2].c1ccc([PH+](CC[PH+](c2ccccc2)c2ccccc2)CC[PH+](c2ccccc2)c2ccccc2)cc1
yes

Repeat for the following molecule: ClCCN(CCCl)B(N(CCCl)CCCl)N(CCCl)CCCl
yes

Repeat for the following molecule: N#Cc1ccccc1C(Cl)(Cl)Cl
no

Repeat for the following molecule: CN[C@H]1C[C@@H]2O[C@@](C)([C@H]1OC)n1c3ccccc3c3c4c(c5c6ccccc6n2c5c31)C(=O)NC4
yes

Repeat for the following molecule: ClCCN(CCCl)c1ccc(CNCCCNCc2ccc(N(CCCl)CCCl)cc2)cc1
yes

Repeat for the following molecule: O=[N+]([O-])[O][Tl]([c]1ccccc1)[c]1ccccc1
no

Repeat for the following molecule: CC12CCC(O)CC1=CCC1C2CCC2(C)C(NC(=O)C3CCCN3C(=O)CN(CCCl)CCCl)CCC12 (stereo not given)
yes

Repeat for the following molecule: O=C1C=C(CN(CCCl)CCCl)C(=O)C=C1CN(CCCl)CCCl
no

Repeat for the following molecule: CCCCCCCCCCCCCCCCCC[N+](C)(C)C
yes

Repeat for the following molecule: CCCCN(C)CC(C(C)=O)C(c1ccccc1)c1c(O)c2ccccc2oc1=O (stereo not given)
yes

Repeat for the following molecule: Cc1cc(N(C)C)c2ccccc2[n+]1CCCCCCCCCC[n+]1c(C)cc(N(C)C)c2ccccc21
yes

Repeat for the following molecule: C[CH2][Sn]([CH2]C)([S]CCS(=O)(=O)O)[S]CCS(=O)(=O)O (tested in a mixture with another compound)
no

Repeat for the following molecule: CCC1CCCCN1CC(C(C)=O)C(c1ccccc1)c1c(O)c2ccccc2oc1=O (stereo not given)
yes

Repeat for the following molecule: COc1ccc(OC)c(/C=C/[N+](=O)[O-])c1
yes

Repeat for the following molecule: CN(N=O)C(=O)NNC(=O)N(C)N=O
yes

Repeat for the following molecule: CC1(C)CCC(C)(C)c2cc(Cl)c(O)cc21
yes

Repeat for the following molecule: CCCCCCNC(=O)CI
no

Repeat for the following molecule: FC(F)(F)c1nc2ccc(SSc3ccc4nc(C(F)(F)F)[nH]c4c3)cc2[nH]1
yes

Repeat for the following molecule: C[C@]12CC[C@H](OC(=O)COc3ccc(N(CCCl)CCCl)cc3)C[C@@H]1CC[C@@H]1[C@@H]2CC[C@]2(C)NC(=O)CC[C@@H]12
yes

Repeat for the following molecule: O=c1[nH]cnc2[nH]cc(CN3CCCCC3)c12
no

Repeat for the following molecule: ClCCN(CCCl)CCN1c2ccccc2Sc2ccc3ccccc3c21
yes

Repeat for the following molecule: O=C([O][Hg][CH2]C1CC(O)CC([CH2][Hg][O]C(=O)c2ccccc2)O1)c1ccccc1 (stereo not given)
yes

Repeat for the following molecule: C/C(=N\Nc1ccccn1)C1CC[N-]C2C(O)CCCC12.C/C(=N\Nc1ccccn1)C1CC[N-]C2C(O)CCCC12.[Cu+2] (stereo not given)
yes

Repeat for the following molecule: [Ni+2].[O-][Cl+3]([O-])([O-])O.c1ccc([PH+](CC[PH+](c2ccccc2)c2ccccc2)c2ccccc2)cc1.c1ccc([PH+](CC[PH+](c2ccccc2)c2ccccc2)c2ccccc2)cc1
no

Repeat for the following molecule: [Cl][Hg][CH2]CC1CC=CCC1 (stereo not given)
yes

Repeat for the following molecule: O=c1oc2ccccc2c(O)c1C(c1ccc2c(c1)Cc1ccccc1-2)c1c(O)c2ccccc2oc1=O
yes

Repeat for the following molecule: CCOP(=O)(OCC)/C(C#N)=C/c1ccccc1Cl
yes

Repeat for the following molecule: CC(=O)Oc1ccc(N=C2C=C(Cl)C(=O)C(Cl)=C2)cc1
no

Repeat for the following molecule: CC[C@](O)(C(=O)O)c1cc2n(c(=O)c1CO)Cc1cc3ccccc3nc1-2
yes

Repeat for the following molecule: COc1cc(C=Nc2cc[c]([Hg][O]C(C)=O)cc2)ccc1O
yes

Repeat for the following molecule: O=S(=O)([O-])[O-].[OH3+].[OH3+].[OH3+].[Ru+2].c1ccccc1
yes

Repeat for the following molecule: CC/C(=C/c1ccc2c(c1)OCO2)[N+](=O)[O-]
yes

Repeat for the following molecule: Oc1c(Cl)cc(-c2cc(Cl)c(O)c(Cl)c2)cc1Cl
yes

Repeat for the following molecule: NC(c1ccccc1)C(O)c1ccccc1 (stereo not given)
no

Repeat for the following molecule: CC1CN1C1=C(F)C(=O)C(N2CC2C)=C(F)C1=O (stereo not given)
yes

Repeat for the following molecule: COc1ccc(-c2c(C)c(C(=O)O)nc(-c3ccc4c(O)c(OC)c5c(c4n3)=NC(C)(C)N=5)c2N)c(O)c1OC
yes

Repeat for the following molecule: C[C@@H]1CCC2[C@@H](C)[C@H](O[C@H]3O[C@@H]4O[C@@]5(C)CCC6[C@H](C)CCC([C@H]3C)[C@]64OO5)O[C@@H]3O[C@@]4(C)CCC1[C@@]23OO4 (stereo not given in full)
yes

Repeat for the following molecule: S=C=Nc1cccc(Cl)c1
yes
